Test system: NCI-H522 lung
Experiment: NCI-60 one-dose screen, 48 h
Settings: 10 µM unless noted
This is part of a sample that, as a whole, favours compounds with a hit. Of some 83,000 tested, about 20% had one in any assay. The source made the active and inactive calls. Rule for the calls: active = growth percent below 10; inactive = the rest.
Labels: active, inactive

• COc1cc(CN2CCO[C@H](COc3cccc(F)c3)C2)ccc1Cl = inactive
• c1ccc(-c2[nH]c3ccccc3c2-c2ccccc2)cc1 = inactive
• C[C@@H]1C[C@H](N)C[C@H](c2ccncc2NC(=O)c2ccc(F)c(-c3c(F)cccc3F)n2)C1 = inactive
• CC(C)CC(NC(=O)OCC1c2ccccc2-c2ccccc21)C(=O)O (stereo not drawn) = inactive
• NC(N)=N/N=C\c1cccc(OCc2ccccc2)c1 = inactive
• FC(F)(F)c1ccc(/C=N/Nc2nnc3n2N=C(c2ccc(Cl)cc2)CS3)cc1 = inactive
• CCN(CC)CCCNc1cccc2c(C)cc(OC)nc12 = inactive
• Cc1c(C)c(C)c([N+](=O)[O-])c([N+](=O)[O-])c1C = inactive
• O=NN(CC(=O)NNc1ccccc1)CC(=O)NNc1ccccc1 = inactive
• CCOC(=O)C(=CNc1ccccc1Cl)C(=O)OCC = inactive
• CN1CCN(Cc2ccc(NC(=O)c3cncc(C#Cc4cnc5cccnn45)c3)cc2C(F)(F)F)CC1 = active
• Nc1n[nH]c2ccc([C@@H]3Nc4c(F)cc5[nH]ncc5c4[C@H]4C5CCC(C5)[C@@H]34)cc12 (stereo partly drawn) = active
• Cc1cc(NC(=O)C2c3ccccc3C(=O)N(CC(C)C)C2c2cccs2)no1 (stereo not drawn) = active
• C#CCNC(=S)N/N=C(\C)c1ccccn1 = inactive
• O=C1c2ccccc2C(=O)c2c1oc1ccc3ccccc3c21 = inactive
• CCOC(=O)Nc1ccc2nc(-c3cscn3)[nH]c2c1 = inactive
• O=C(NCCNC(=O)c1cc(S(=O)(=O)NCCc2ccccc2)c(O)c(O)c1O)c1cc(S(=O)(=O)NCCc2ccccc2)c(O)c(O)c1O = inactive
• CCCCc1n(Cc2ccc3ccccc3n2)cc[n+]1Cc1ccc2ccccc2n1 = inactive
• CCSc1ccc([C@@H]2[C@@H](O)C(=O)N2c2cc(OC)c(OC)c(OC)c2)cc1 = active
• C[C@]12CCc3nc(Nc4ccc(O)cc4)sc3C1=CC[C@@H]1[C@@H]2CC[C@]2(C)/C(=N/NC(N)=S)CC[C@@H]12 = active
• CN1CCN(Cc2ccc(NC(=O)c3cncc(C#Cc4ccc(N)nc4)c3)cc2C(F)(F)F)CC1 = inactive
• CC1=NC(c2ccc(Cl)cc2)C2=C(N1)/C(=C/c1ccc(Cl)cc1)CCC2 (stereo not drawn) = inactive
• C#CC[C@@H]1C[C@]2(C)[C@H]3CC=C4[C@H]5[C@@H](C)[C@H](C)CC[C@]5(C(=O)NCCCCCCCCN)CC[C@@]4(C)[C@]3(C)CC[C@H]2C(C)(C)[C@H]1OC(C)=O = active

----------
System: MCF7 breast
Test: NCI-60 one-dose screen, 48 h (100 = growth as untreated, 0 = no growth, -100 = all killed)
Conditions: 10 µM unless noted
This is part of a sample that, as a whole, favours compounds with a hit. Of some 83,000 tested, about 20% had one in any assay.
Property: growth; scope: individual molecules
measure: growth (%)

* O=C(Nc1cnc(C(F)(F)F)cn1)c1cc(Cl)ccc1O | 6.48
* Nc1nc(N)c2cc(Sc3ccc(Cl)cc3)ccc2n1 | 19.7
* Cc1cc(C)c2c(n1)sc1c(Nc3ccc(Cl)cc3Cl)ncnc12 | 19.8
* O=c1[nH]c2cc(Cl)c(Cl)cc2o1 | 105
* COc1ccc2c(c1)CCCC21C(=O)Nc2ccccc21 (stereo not given) | 95.7
* COc1cc2cc(C(=O)Nc3ccccc3)c(N)nc2cc1OC | -88.4
* NC(=O)Nc1ccc2ncnc(Nc3cccc(O)c3)c2c1 | 97.3
* Clc1cc(Br)ccc1-c1ccc(CNCC2CCNCC2)o1 | 39.7
* c1ccc(C2=Nc3ccccc3SC2)cc1 | 86.4
* CC(C)COC(=O)NC(C)(C)C | 90.8
* COc1cc(Nc2ccnc3ccc(Br)cc23)cc(OC)c1OC | 15.5
* Cc1cc(N=Nc2ccc(-c3ccc(N=Nc4ccc(O)c(C(=O)O)c4)cc3)cc2)c(N)c(N=Nc2ccc(C(=O)O)cc2)c1N | 97.6
* O=C(Nc1ccccc1)C(CCCCN1C(=O)c2ccccc2C1=O)N1C(=O)c2ccccc2C1=O (stereo not given) | 101
* CNC(=O)c1ccccc1Sc1ccc2c(/C=C/c3ccccn3)n[nH]c2c1 | 35.2
* Cc1ccc(NC(=O)c2nc(S(C)(=O)=O)oc2-c2ccc(F)cc2)cc1Nc1ccc2ncn(C)c(=O)c2c1 | 52.5
* Cc1n(Cc2ccc3ccccc3n2)cc[n+]1Cc1ccc2ccccc2n1 | 61.5
* CC[C@H](Nc1nc(N)nc(C2CC2)c1C#N)c1nc2cccc(NCc3ccc(C(=O)NO)cc3)c2c(=O)n1-c1ccccc1 | 4.25
* CCOC(C)(c1ccc(Cl)cc1)C1CCNCC1 (stereo not given) | 94.8
* CCCCCCCCCCCCCCCC1=NCC[N+]1(CCO)CCO | 50.5
* CC1=C(O)C(=O)C(c2c(C)cc(C)c(Br)c2C)=C(O)C1=O | 56.5

----------
Test system: OVCAR-5 ovarian
Assay: NCI-60 one-dose screen, 48 h
Conditions: 10 µM unless noted
The panel holds about 83,000 compounds, 20% with a hit somewhere; the sample as a whole holds those more often. The source made the active and inactive calls. How the source made its calls: active means growth percent below 10; inactive means the rest.
Labels: active, inactive

* O=C1Cc2c([nH]c3ccc([N+](=O)[O-])cc23)-c2ccccc2N1 | inactive
* CC(=O)Nc1ccc(Cl)cc1Cl | inactive
* NC(=O)c1noc(C(=O)c2ccccc2)c1N | inactive
* Cc1cc(C)cc(NC(=O)Cn2nncc2CN2C(=O)CSC2=O)c1 | inactive
* CN1CCN(Cc2ccc(NC(=O)c3cncc(C#Cc4ncc5ccccn45)c3)cc2C(F)(F)F)CC1 | inactive
* Cc1ccc(N=CNN=C(N)N)cc1 | inactive
* CCCc1n(Cc2ccc3ccccc3n2)cc[n+]1Cc1ccc2ccccc2c1 | active
* COc1cccc(/C=N/N=C(N)N)c1 | inactive
* COc1cc(/C=C/C(=O)c2ccc(NC(=O)CSc3nnc(-c4ccc(Cl)cc4)n3-c3ccccc3)cc2)cc(OC)c1OC | inactive
* CC(=O)c1ccc(Nc2nc(Cl)nc(Oc3c(Cl)cccc3Cl)n2)cc1 | inactive
* CN1CCN(Cc2ccc(NC(=O)c3cncc(C#Cc4cnc5cccnn45)c3)cc2C(F)(F)F)CC1 | inactive
* COc1cc(-c2n/c(=C\c3c(O)[nH]c4cc(Cl)ccc34)cc3c2=Nc2ccccc2-3)cc(OC)c1OC | inactive
* CC1=C(C(=O)Nc2ccc(F)cc2)C(c2ccccc2)C2=C(CC(C)(C)CC2=O)N1 (stereo not given) | inactive
* O=C(Nc1ccc(Oc2ccc(Nc3nc4ccccc4s3)cc2)cc1)Nc1ccc(Cl)c(C(F)(F)F)c1 | inactive
* Cc1ccc(-c2cnc3sc4ccc(Cl)cc4n23)cc1 | inactive

----------
Tested on: NCI-H226 lung
Assay: NCI-60 one-dose screen, 48 h
Details: 10 µM unless noted
Protocol: Growth inhibition of the NCI-H226 human Non-Small Cell Lung tumor cell line is measured as a screen for anti-cancer activity. Cells are grown in 96 well plates and exposed to the test compound for 48 hours. Compounds are tested at a single concentration, which is 10^-5 M for most compounds. The reported endpoint is percent growth (GI% or GIPRCNT), where numbers from 0 - 100% represent growth inhibition, and numbers from -100% - 0 represent cell death. […]
The panel holds about 83,000 compounds, 20% with a hit somewhere; the sample as a whole holds those more often. Active and inactive are the calls of the source. How the source made its calls: active means growth percent below 10; inactive means the rest.
Labels: active, inactive

* COc1ccccc1/C=N\NC(=S)Nc1ccc(F)cc1 | inactive
* COc1cc(NCCCCC(C)N)c2nccc(C)c2c1 (stereo not given) | inactive
* C[C@]12CCc3nc(Nc4ccc(O)cc4)sc3C1=CC[C@@H]1[C@@H]2CC[C@]2(C)/C(=N/NC(N)=S)CC[C@@H]12 | inactive
* Oc1c(C(c2ccc(F)cc2)N2CCCCC2)ccc2cncnc12 (stereo not given) | active
* Oc1[nH]c2ccccc2c1/C=c1/ccc2c(c1)N=C(c1ccc(C(F)(F)F)cc1)N=2 | inactive
* O=C(Nc1ccc(Br)cc1)Nc1ccccc1Cl | inactive
* O=C(O)Cn1ccc2ccccc21 | inactive
* CS(=O)(=O)Nc1cc(-c2cc3ncc(C#N)c(Nc4ccc(Oc5ccccc5)c(Cl)c4)c3s2)cnc1Cl | inactive
* CCc1ccc(Nc2cc(C)c3ccc(O)cc3n2)cc1 | inactive
* O=c1[nH]c2ccccc2n2cc3cccnc3c12 | inactive
* O=C(/C=C/c1cn(-c2ccccc2)nc1-c1cccc(Nc2ccnc3cc(Cl)ccc23)c1)c1ccc2c(c1)OCO2 | inactive
* O=C(O)c1cn(-c2ccccc2)nc1-c1ccc(O)cc1 | inactive
* c1ccc(C(Nc2ccccn2)(c2ccccc2)c2ccccc2)cc1 | inactive
* Cc1ccc(C2CC(c3cccs3)=NN2c2ccc(S(N)(=O)=O)cc2)s1 (stereo not given) | inactive
* COc1ccc(CCN2COc3c([C@@H](C)CCC=C(C)C)ccc(C)c3C2)cc1OC | inactive
